- Test system: pJNK in HCT-116 cells
- assay info: Phospho-JNK (Thr183/Tyr185) Meso Scale ELISA assay, TNFα-stimulated HCT-116 cells
- Format: cell-based
- details: Homo sapiens, read-out: mean HCT-116 pJNK ELISA IC50 (Col. B)
Structures can show the parent of a compound that is named as a salt.
Here the recorded IC50 is given for each entry.

[
  {
    "compound": "Nc1ncc(-c2cnn(C3CC(=O)C3)c2)c2cc(-c3csc4cnccc34)oc12 [Example 315]",
    "result": "100 to 1000 nM"
  },
  {
    "compound": "CC(=O)N1CCC(n2cc(-c3cnc(N)c4oc(-c5cccc6c5oc5ccccc56)cc34)cn2)CC1 [Example 93]",
    "result": "1000 to 10000 nM"
  }
]

Enter IC50 (test system pJNK in HCT-116 cells) for CC1(C)OC[C@@H](Cn2cc(-c3cnc(N)c4oc(-c5csc6cnccc56)cc34)cn2)O1 [Example 297]
100 to 1000 nM

Enter IC50 (test system pJNK in HCT-116 cells) for CC(=O)N1CCC(n2cc(-c3cnc(N)c4oc(-c5cccc6ncsc56)cc34)cn2)CC1 [Example 225, diformate salt]
< 100 nM

Enter IC50 (test system pJNK in HCT-116 cells) for CS(=O)(=O)CCN1CCC(n2cc(-c3cnc(N)c4oc(-c5cccc6cnccc56)cc34)cn2)CC1 [Example 82]
100 to 1000 nM

Enter IC50 (test system pJNK in HCT-116 cells) for CC(=O)N1CCC(n2cc(-c3cnc(N)c4oc(-c5cccc([N+](=O)[O-])c5)cc34)cn2)CC1 [Example 112]
100 to 1000 nM

Enter IC50 (test system pJNK in HCT-116 cells) for Cc1nn(CC(C)(C)O)cc1-c1cnc(N)c2oc(-c3csc4cnccc34)cc12 [Example 289]
100 to 1000 nM

====

- assayed system: TAK1-TAB1 fusion protein (Homo sapiens, UniProt O43318)
- Construct: purchased Carna
- Sequence (O43318 with tags, fused parts or gaps limits assumed): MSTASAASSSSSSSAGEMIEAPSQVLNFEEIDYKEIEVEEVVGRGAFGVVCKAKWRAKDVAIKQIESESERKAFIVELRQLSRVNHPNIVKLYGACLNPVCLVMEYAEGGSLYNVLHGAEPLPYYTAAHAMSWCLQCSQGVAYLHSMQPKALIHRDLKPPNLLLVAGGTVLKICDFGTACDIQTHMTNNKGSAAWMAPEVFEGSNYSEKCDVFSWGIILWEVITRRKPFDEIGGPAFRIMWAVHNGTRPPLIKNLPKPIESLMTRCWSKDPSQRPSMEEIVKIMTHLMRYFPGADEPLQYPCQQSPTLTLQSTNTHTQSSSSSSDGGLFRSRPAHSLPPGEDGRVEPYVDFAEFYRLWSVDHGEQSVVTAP
- assay info: TAK1 biochemical assay (AlphaScreen, GST-MAP2K7 substrate)
- details: TAK1-TAB1 fusion protein, GST-MAP2K7 substrate; read-out: mean TAK1 IC50 (Col. A)
pIC50: −log10 of the molar value. Structures can show the parent of a compound that is named as a salt.
value kind: pIC50

Entry Cc1cc(-c2cc3c(-c4cnn([C@H]5CC[C@H](O)CC5)c4)cnc(N)c3o2)c2snnc2c1 [Example 373] needs its pIC50 filled in; supply it.
> 7.00

Entry CC(=O)N1CCC(n2cc(-c3cnc(N)c4oc(-c5ccc(O)c(Cl)c5)cc34)cn2)CC1 [Example 136] needs its pIC50 filled in; supply it.
6.00 to 7.00

Entry CC(=O)c1cccc(-c2cc3c(-c4cnn(C5CCN(C(C)=O)CC5)c4)cnc(N)c3o2)c1 [Example 124] needs its pIC50 filled in; supply it.
5.00 to 6.00

Entry CC(=O)N1CCC(n2cc(-c3cnc(N)c4oc(C5=CCCCC5)cc34)cn2)CC1 [Example 142] needs its pIC50 filled in; supply it.
6.00 to 7.00

Entry CC(=O)N1CCC(n2cc(-c3cnc(N)c4oc(-c5ccc6c(c5)CC(=O)N6)cc34)cn2)CC1 [Example 103] needs its pIC50 filled in; supply it.
5.00 to 6.00

Entry CC(=O)N1CCC(n2cc(-c3cnc(N)c4oc(-c5ccc6c(c5)CCC(=O)N6)cc34)cn2)CC1 [Example 154] needs its pIC50 filled in; supply it.
6.00 to 7.00

Entry CSc1nc2cccc(-c3cc4c(-c5cnn(C6CCN(C(C)=O)CC6)c5)cnc(N)c4o3)c2s1 [Example 352, trifluoroacetate] needs its pIC50 filled in; supply it.
5.00 to 6.00

Entry COC(=O)c1csc(-c2cnc(N)c3oc(-c4csc5cnccc45)cc23)c1 [Example 380] needs its pIC50 filled in; supply it.
5.00 to 6.00
